system: K. pneumoniae ATCC 10031 (SEN) and K. pneumoniae ATCC 700603 (MDR); test: Frequency-of-resistance (FoR) assay, relative MIC of mutants; assay type: cell-based, Klebsiella pneumoniae; settings: Klebsiella pneumoniae, read-out: MIC of evolved line, Klebsiella pneumoniae ATCC 10031 (KP-SEN); evolved line 3
Measured MIC accompanies every entry in the list below.
Provide the reading as a plain figure in µg/mL.

Please review the following examples before continuing.
INSERT INTO results (molecule, unit_abbreviation, value_reported) VALUES
  ('C[C@@H](O)[C@H]1C(=O)N2C(C(=O)O)=C(S[C@@H]3CN[C@H](C(=O)N(C)C)C3)[C@H](C)[C@H]12 [Meropenem]', 'µg/mL', 0.0156),
  ('CN(C)c1cc(CNCC(C)(C)C)c(O)c2c1C[C@H]1C[C@H]3[C@H](N(C)C)C(O)=C(C(N)=O)C(=O)[C@@]3(O)C(O)=C1C2=O [Omadacycline]', 'µg/mL', 16);

Req: What does the data say about its MIC? Entry: CNC(C)C1CCC(N)C(OC2C(N)CC(N)C(OC3OCC(C)(O)C(NC)C3O)C2O)O1 (centres unmarked) [Gentamicin]
Resp: 8
